- targetSystem: Mouse ACVR2A (mouse, UniProt P27038 20-135, limits assumed); note: test concentration or dose not given here
- Sequence (P27038 20-135 limits assumed): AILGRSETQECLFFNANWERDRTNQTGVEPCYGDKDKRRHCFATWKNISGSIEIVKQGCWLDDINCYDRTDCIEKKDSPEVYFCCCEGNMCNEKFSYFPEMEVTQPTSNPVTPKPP
- assaySummary: ELISA
The threshold is inclusive: optical density of exactly 3 OD counts as Criterion met; values below receive Criterion not met.

Please review the entries below; each comes with its answer.
369_C02 (antibody, V domains shown) VH: EVQLLESGGGLVQPGGSLRLSCAASGFTFDSYSMNWVRQAPGKGLEWVSNINYNGGYKSYADSVKGRFTISRDNSKNTLYLQMNSLRAEDTAVYYCARSANWHDTALDYWGQGTLVTVSS VL: DIQMTQSPSSLSASVGDRVTITCRASQSILTYLNWYQQKPGKAPKLVIYAATSRASGVPSRFSGSGSGTDFTLTISSLQPEDFATYYCQQSYELPLTFGGGTKVEIK | Criterion met
372_C07 (antibody, V domains shown) VH: EVQLLESGGGLVQPGGSLRLSCAASGFTFSDYSMNWVRQAPGKGLEWVSNINYNSGYTSYADSVKGRFTISRDNSKNTLYLQMNSLRAEDTAVYYCARSANWHDTHLDYWGQGTLVTVSS VL: DIQMTQSPSSLSASVGDRVTITCRASQSILSYLNWYQQKPGKAPKLVIYAATSRHSGVPSRFSGSGSGTDFTLTISSLQPEDFATYYCQQSDNTPLTFGGGTKVEIK | Criterion not met
370_E03 (antibody, V domains shown) VH: EVQLLESGGGLVQPGGSLRLSCAASGFTFSSYGMNWVRQAPGKGLEWVSSINYNGGYKGYADSVKGRFTISRDNSKNTLYLQMNSLRAEDTAVYYCARSANWHDTALDYWGQGTLVTVSS VL: DIQMTQSPSSLSASVGDRVTITCRASQSILTYLNWYQQKPGKAPKLVIYYASNRASGVPSRFSGSGSGTDFTLTISSLQPEDFATYYCQQSYDSPLTFGGGTKVEIK | Criterion met
368_D05 (antibody, V domains shown) VH: EVQLLESGGGLVQPGGSLRLSCAASGFTFSSYSMNWVRQAPGKGLEWVSGINYNGGYTSYADSVKGRFTISRDNSKNTLYLQMNSLRAEDTAVYYCARSANWHDTALDYWGQGTLVTVSS VL: DIQMTQSPSSLSASVGDRVTITCRASQSILTYLNWYQQKPGKAPKLVIYAATSRASGVPSRFSGSGSGTDFTLTISSLQPEDFATYYCQQSDDSPLTFGGGTKVEIK | Criterion not met
371_F04 (antibody, V domains shown) VH: EVQLLESGGGLVQPGGSLRLSCAASGFTFDSYSMNWVRQAPGKGLEWVAGINYNSGYKGYADSVKGRFTISRDNSKNTLYLQMNSLRAEDTAVYYCARSANWHDTALDYWGQGTLVTVSS VL: DIQMTQSPSSLSASVGDRVTITCRASQSILSYLNWYQQKPGKAPKLLIYAATSRHSGVPSRFSGSGSGTDFTLTISSLQPEDFATYYCQQSYNNPLTFGGGTKVEIK | Criterion met

Q: Evaluate 371_D06 (antibody, V domains shown) VH: EVQLLESGGGLVQPGGSLRLSCAASGFTFDDYSMNWVRQAPGKGLEWVAGINYNGGYTSYADSVKGRFTISRDNSKNTLYLQMNSLRAEDTAVYYCARSANWHDTALDYWGQGTLVTVSS VL: DIQMTQSPSSLSASVGDRVTITCRASQSIISYVNWYQQKPGKAPKLLIYAATSRASGVPSRFSGSGSGTDFTLTISSLQPEDFATYYCQQSYSTPLTFGGGTKVEIK : optical density at minimum 3 OD?
A: Criterion not met

Q: Follow-up item: 373_B04 (antibody, V domains shown) VH: EVQLLESGGGLVQPGGSLRLSCAASGFTFSSYGMNWVRQAPGKGLEWVAGINYNSGYKGYADSVKGRFTISRDNSKNTLYLQMNSLRAEDTAVYYCARSANWHDTALDYWGQGTLVTVSS VL: DIQMTQSPSSLSASVGDRVTITCRASQSILTYLNWYQQKPGKAPKLLIYAATSRASGVPSRFSGSGSGTDFTLTISSLQPEDFATYYCQQSYETPLTFGGGTKVEIK
A: Criterion met

Q: Note, next up: 373_E12 (antibody, V domains shown) VH: EVQLLESGGGLVQPGGSLRLSCAASGFTFSSYSMNWVRQAPGKGLEWVANINYNGGYTGYADSVKGRFTISRDNSKNTLYLQMNSLRAEDTAVYYCARSANWHDTALDYWGQGTLVTVSS VL: DIQMTQSPSSLSASVGDRVTITCRASQSILSYVNWYQQKPGKAPKLVIYAATSRASGVPSRFSGSGSGTDFTLTISSLQPEDFATYYCQQSYDTPLTFGGGTKVEIK
A: Criterion met

Q: Let us now turn to 370_G03 (antibody, V domains shown) VH: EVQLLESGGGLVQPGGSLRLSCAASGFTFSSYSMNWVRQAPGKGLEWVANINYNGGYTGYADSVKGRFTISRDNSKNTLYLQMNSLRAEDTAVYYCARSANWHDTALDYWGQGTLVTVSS VL: DIQMTQSPSSLSASVGDRVTITCRASQSILTYVNWYQQKPGKAPKLVIYATTSRASGVPSRFSGSGSGTDFTLTISSLQPEDFATYYCQQSYNNPLTFGGGTKVEIK
A: Criterion met
